# Target: Human CD137 ECD (human)
# Sequence (chain, as listed by the source limits assumed): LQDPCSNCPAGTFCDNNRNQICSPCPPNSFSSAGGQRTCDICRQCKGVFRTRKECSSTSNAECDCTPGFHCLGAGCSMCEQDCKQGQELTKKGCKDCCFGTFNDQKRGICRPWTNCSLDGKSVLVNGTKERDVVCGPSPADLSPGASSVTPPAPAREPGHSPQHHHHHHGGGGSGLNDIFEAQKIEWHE
# Assay Name: SPR, vs parent H183/L072
Assay Endpoint: fold change of affinity (fold)
Answers are plain numbers, in fold.

dBBDu183H A98N / dBBDu072L (antibody, name in Kabat numbering, V domains shown) VH: QVQLVESGGGLVQPGRSLRLSCAASGFTFSNAWMHWVRQAPGKGLEWVAQIKDKGNAYAAYYAPSVKGRFTISRDDSKNSIYLQMNSLKTEDTAVYYCHYVHYNSASTVLPAFGVDAWGQGTTVTVSS VL: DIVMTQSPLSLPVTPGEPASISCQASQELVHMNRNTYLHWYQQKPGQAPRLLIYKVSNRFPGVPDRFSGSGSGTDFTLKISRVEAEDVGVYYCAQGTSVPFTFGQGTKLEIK	0
dBBDu183H G100hY / dBBDu072L (antibody, name in Kabat numbering, V domains shown) VH: QVQLVESGGGLVQPGRSLRLSCAASGFTFSNAWMHWVRQAPGKGLEWVAQIKDKGNAYAAYYAPSVKGRFTISRDDSKNSIYLQMNSLKTEDTAVYYCHYVHYASASTVLPAFYVDAWGQGTTVTVSS VL: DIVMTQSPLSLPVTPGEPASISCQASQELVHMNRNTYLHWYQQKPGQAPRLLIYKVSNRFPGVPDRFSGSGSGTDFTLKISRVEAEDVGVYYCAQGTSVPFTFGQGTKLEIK	0

--- query ---
Q) Name the recorded fold change of affinity of the item dBBDu183H S100aT / dBBDu072L (antibody, name in Kabat numbering, V domains shown) VH: QVQLVESGGGLVQPGRSLRLSCAASGFTFSNAWMHWVRQAPGKGLEWVAQIKDKGNAYAAYYAPSVKGRFTISRDDSKNSIYLQMNSLKTEDTAVYYCHYVHYASATTVLPAFGVDAWGQGTTVTVSS VL: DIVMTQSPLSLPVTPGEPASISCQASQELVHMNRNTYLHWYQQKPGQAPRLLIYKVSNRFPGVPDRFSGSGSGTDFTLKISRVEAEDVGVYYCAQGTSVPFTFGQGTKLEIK in your answer.
A) 0

Numbers sourced from patent US20210388087A1.
